Origin of values: patent EP0584290B1

// IC50 lookup, one value per entry
- Study target: endothelin receptor, rat heart ventricle
- Procedure text: [125I]-ET-1 binding assay in rat heart ventricle
- Assay context: [125I]-ET-1, rat heart ventricle (10 µg), 37°C, 2 hours
Square brackets hold non-standard residues; d marks the D form. Peptide text beside a SMILES is read from it.
Measurement name: IC50

compound="CC[C@H](C)[C@H](NC(=O)[C@H](CC(=O)O)NC(=O)[C@H](CC(C)C)NC(=O)[C@@H](Cc1ccccc1)NC(C)=O)C(=O)N[C@H](C(=O)N[C@@H](Cc1c[nH]c2ccccc12)C(=O)O)[C@@H](C)CC [Example 1, Ac-D-Phe-Leu-Asp-Ile-Ile-Trp] (Ac-[dF]LDIIW-OH)" study_target="endothelin receptor, rat heart ventricle" measurement_name=IC50 endpoint_result="0.72 µM"
compound="CC[C@H](C)[C@H](NC(=O)[C@H](CC(=O)O)NC(=O)[C@H](CC(C)C)NC(=O)[C@@H](Cc1ccccc1)NC(C)=O)C(=O)N[C@@H](Cc1c[nH]c2ccccc12)C(=O)O [Example 6, Ac-D-Phe-Leu-Asp-Ile-Trp] (Ac-[dF]LDIW-OH)" study_target="endothelin receptor, rat heart ventricle" measurement_name=IC50 endpoint_result="24.5 µM"
compound="CC[C@@H](C)[C@@H](NC(=O)[C@@H](NC(=O)[C@@H](CC(=O)O)NC(=O)[C@H](CC(C)C)NC(=O)[C@@H](Cc1c[nH]cn1)NC(C)=O)[C@@H](C)CC)C(=O)N[C@@H](Cc1c[nH]c2ccccc12)C(=O)O [Example 7, Ac-D-His-Leu-D-Asp-Ile-D-Ile-Trp] (Ac-[dH]L[dD]I[dI]W-OH)" study_target="endothelin receptor, rat heart ventricle" measurement_name=IC50 endpoint_result="6.03 µM"
compound="CC[C@H](C)[C@H](NC(=O)[C@H](CC(=O)O)NC(=O)[C@@H](Cc1ccccc1)NC(C)=O)C(=O)N[C@H](C(=O)N[C@@H](Cc1c[nH]c2ccccc12)C(=O)O)[C@@H](C)CC [Example 11, Ac-D-Phe-Asp-Ile-Ile-Trp] (Ac-[dF]DIIW-OH)" study_target="endothelin receptor, rat heart ventricle" measurement_name=IC50 endpoint_result="2.15 µM"
